system.name: T1, human GIP receptor (human) (UniProt P48546)
T1 sequence (looked up): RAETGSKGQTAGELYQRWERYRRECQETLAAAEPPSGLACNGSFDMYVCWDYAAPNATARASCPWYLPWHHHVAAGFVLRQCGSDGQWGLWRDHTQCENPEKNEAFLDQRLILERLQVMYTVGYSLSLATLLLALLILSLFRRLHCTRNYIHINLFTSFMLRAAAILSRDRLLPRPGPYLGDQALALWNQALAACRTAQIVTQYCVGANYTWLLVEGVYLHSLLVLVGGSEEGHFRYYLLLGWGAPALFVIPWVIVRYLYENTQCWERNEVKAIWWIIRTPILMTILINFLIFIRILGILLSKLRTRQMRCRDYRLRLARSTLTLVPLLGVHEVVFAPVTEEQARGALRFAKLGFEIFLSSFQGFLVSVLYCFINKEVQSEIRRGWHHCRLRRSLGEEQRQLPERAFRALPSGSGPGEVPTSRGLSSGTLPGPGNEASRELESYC
measurement.notes: cell-based or functional assay
endpoint.name: cAMP Rel EC50 (in the presence of 1% HSA)

INSERT INTO measurements (binder, readout_value) VALUES
  ('YXQGTFTSDFSXXLDKKAQXAFIEWLLEGGPSSGAPPPEGX (non-natural residues; acylated Lys; C-terminal amide; synthetic construct; SITE 2: note = 2-Aminoisobutyric Acid; SITE 12: note = L-ornithine; SITE 13: note = alpha-methyl-leucine; SITE 17: note = Lysine is chemically modified through conjugation of the epsilon-amino group of the Lysine side chain with (2-[2-(2-Amino-ethoxy)-ethoxy]-acetyl)-(gamma-Glu)) [Example 262]', '40.4 nM'),
  ('YXQGTXTSDXSIXLDXKAQXEFIEXLQEGGPSSGAPPPSGS (non-natural residues; acylated Lys; C-terminal amide; synthetic construct; SITE 2: note = 2-Aminoisobutyric Acid; SITE 6: note = alpha-methyl-2-fluoro-L-phenylalanine; SITE 10: note = 3-(4-Pyridyl)-L-alanine; SITE 13: note = alpha-methyl-leucine; SITE 16: note = L-ornithine; SITE 17: note = Lysine is chemically modified through conjugation of the epsil) [Example 643]', '1.61 nM'),
  ('YXQGTFTSDFSKXLDKKAQXAFIEYLLAGGPSSGAPPPSGE (synthetic construct; SITE 2: note = 2-Aminoisobutyric Acid; SITE 13: note = alpha-methyl-leucine; SITE 17: note = Lysine is chemically modified through conjugation of the epsilon-amino group of the Lysine side chain with (2-[2-(2-Amino-ethoxy)-ethoxy]-acetyl)-(gamma-Glu)-CO-(CH2) 18-CO2H; SITE 20: n) [Example 11]', '40.8 nM'),
  ('YXQGTFTSDXSKXLDKKAQXAFIEYLLAGGPSSGEPPPSGE (synthetic construct; SITE 2: note = 2-Aminoisobutyric Acid; SITE 10: note = 3-(4-Pyridyl)-L-alanine; SITE 13: note = alpha-methyl-leucine; SITE 17: note = Lysine is chemically modified through conjugation of the epsilon-amino group of the Lysine side chain with (2-[2-(2-Amino-ethoxy)-ethoxy]-acetyl)) [Example 28]', '63.8 nM');

Q: Tell me the measured cAMP Rel EC50 (in the presence of 1% HSA) of YXQGTXTSDXSIXLDXKAQXEFIEXLLEGGPSSGAPPPSGE (Non-natural residues; K acylated AEEA-γGlu-C18 diacid; C-terminal amide; synthetic construct; SITE 2: note = 2-Aminoisobutyric Acid; SITE 6: note = alpha-methyl-2-fluoro-L-phenylalanine; SITE 10: note = 3-(4-Pyridyl)-L-alanine; SITE 13: note = alpha-methyl-leucine; SITE 16: note = L-ornithine; SITE 17: note = Lysine is chemically modified through conjugation of the epsil) [Example 615] , please.
Ans: 0.95 nM

Q: Ok, now YXQGTXTSDXXIXLDXKAQXEFIEXLIEGGPSSGAPPPSGSE (Aib, alpha-methyl residues, 4Pal, Orn, lipidated Lys, amide; synthetic construct; SITE 2: note = 2-Aminoisobutyric Acid; SITE 6: note = alpha-methyl-L-phenylalanine; SITE 10: note = 3-(4-Pyridyl)-L-alanine; SITE 11: note = alpha-methyl-L-serine; SITE 13: note = alpha-methyl-leucine; SITE 16: note = L-ornithine; SITE 17: note = Lysine is chemically modified th) [Example 1166]
Ans: 1.1 nM

Q: # iterate: YXQGTXTSDXXIXLDXKAQXEFIEXLIEGGPPSXEPPPEGE (non-natural residues, C-terminal amide, acylated Lys with fatty diacid; synthetic construct; SITE 2: note = 2-Aminoisobutyric Acid; SITE 6: note = alpha-methyl-2-fluoro-L-phenylalanine; SITE 10: note = 3-(4-Pyridyl)-L-alanine; SITE 11: note = alpha-methyl-L-serine; SITE 13: note = alpha-methyl-leucine; SITE 16: note = L-ornithine; SITE 17: note = Lysine is chemically mo) [Example 1190]
Ans: 0.954 nM

Q: Here is the next binder: YXQGTXTSDXSILLDKKAQXAFIEYLEEGGPSSGAPPPSGGGE (non-natural residues; lipidated Lys; C-terminal amide; synthetic construct; SITE 2: note = 2-Aminoisobutyric Acid; SITE 6: note = alpha-methyl-2-fluoro-L-phenylalanine; SITE 10: note = 3-(4-Pyridyl)-L-alanine; SITE 17: note = Lysine is chemically modified through conjugation of the epsilon-amino group of the Lysine side chain with (gamma-Glu)2-CO-(CH2)1) [Example 619]
Ans: 6.78 nM
